experimental-protocol: Hepatic extraction ratio in rat liver microsomes at 10 uM in presence of NADPH by LC-MS/MS analysis
Type: ADME, Microsome
details: read-out: ERH
measurement-label: hepatic extraction ratio at 10 µM
// no unit string in output, number only

Give the reported hepatic extraction ratio at 10 µM for this compound. CCCCCCCC(c1cn([C@@H]2O[C@H](CO)[C@@H](O)[C@H](O)[C@H]2O)c2ccc(Br)cc12)c1cn([C@@H]2O[C@H](CO)[C@@H](O)[C@H](O)[C@H]2O)c2ccc(Br)cc12 0.39

---

experimental-protocol: Half life in human liver microsomes at 10 uM in presence of NADPH by LC-MS/MS analysis
Type: ADME, Microsome
measurement-label: half-life at 10 µM (h)
Response body: numeric value in h, unit text excluded.

Give the reported half-life at 10 µM for this compound. CCCCCCCC(c1cn([C@@H]2O[C@H](CO)[C@@H](O)[C@H](O)[C@H]2O)c2ccc(Br)cc12)c1cn([C@@H]2O[C@H](CO)[C@@H](O)[C@H](O)[C@H]2O)c2ccc(Br)cc12 1.35

---

experimental-protocol: Stability in rat liver microsomes at 10 uM in presence of NADPH by LC-MS/MS analysis
Type: ADME, Microsome
details: read-out: Stability
measurement-label: remaining at 10 µM

Give the reported remaining at 10 µM for this compound. CCCCCCCC(c1cn([C@@H]2O[C@H](CO)[C@@H](O)[C@H](O)[C@H]2O)c2ccc(Br)cc12)c1cn([C@@H]2O[C@H](CO)[C@@H](O)[C@H](O)[C@H]2O)c2ccc(Br)cc12 > 73%

---

experimental-protocol: Aqueous solubility of compound after 5 hrs at 25 degC by LC-MS/MS analysis
Assay type: physicochemical
details: aqueous medium (not specified further)
measurement-label: solubility at 5 h
Record the result as a number with its unit.

Give the reported solubility at 5 h for this molecule. CCCCCCCC(c1cn([C@@H]2O[C@H](CO)[C@@H](O)[C@H](O)[C@H]2O)c2ccc(Br)cc12)c1cn([C@@H]2O[C@H](CO)[C@@H](O)[C@H](O)[C@H]2O)c2ccc(Br)cc12 5.8 µg/mL

---

experimental-protocol: n-Octanol/water partition co-efficient, log P of the compound after 4 hrs by LC-MS/MS analysis
Format: physicochemical
measurement-label: logP at 4 h
// no unit string in output, number only

Give the reported logP at 4 h for this molecule. CCCCCCCC(c1cn([C@@H]2O[C@H](CO)[C@@H](O)[C@H](O)[C@H]2O)c2ccc(Br)cc12)c1cn([C@@H]2O[C@H](CO)[C@@H](O)[C@H](O)[C@H]2O)c2ccc(Br)cc12 1.06

---

experimental-protocol: Hepatic extraction ratio in human liver microsomes at 10 uM in presence of NADPH by LC-MS/MS analysis
Type: ADME, Microsome
details: read-out: ERH
measurement-label: hepatic extraction ratio at 10 µM
// no unit string in output, number only

Give the reported hepatic extraction ratio at 10 µM for this molecule. CCCCCCCC(c1cn([C@@H]2O[C@H](CO)[C@@H](O)[C@H](O)[C@H]2O)c2ccc(Br)cc12)c1cn([C@@H]2O[C@H](CO)[C@@H](O)[C@H](O)[C@H]2O)c2ccc(Br)cc12 0.5

---

experimental-protocol: Stability in human liver microsomes at 10 uM in presence of NADPH by LC-MS/MS analysis
Assay type: ADME, Microsome
details: read-out: Stability
measurement-label: remaining at 10 µM

Give the reported remaining at 10 µM for this compound. CCCCCCCC(c1cn([C@@H]2O[C@H](CO)[C@@H](O)[C@H](O)[C@H]2O)c2ccc(Br)cc12)c1cn([C@@H]2O[C@H](CO)[C@@H](O)[C@H](O)[C@H]2O)c2ccc(Br)cc12 > 73%

---

experimental-protocol: Intrinsic clearance in human liver microsomes assessed per mg protein at 10 uM in presence of NADPH by LC-MS/MS analysis
Format: ADME, Microsome
details: read-out: CLH
measurement-label: microsomal CLint at 10 µM (µL/min/mg)
Response body: numeric value in µL/min/mg, unit text excluded.

Give the reported microsomal CLint at 10 µM for this molecule. CCCCCCCC(c1cn([C@@H]2O[C@H](CO)[C@@H](O)[C@H](O)[C@H]2O)c2ccc(Br)cc12)c1cn([C@@H]2O[C@H](CO)[C@@H](O)[C@H](O)[C@H]2O)c2ccc(Br)cc12 19

---

experimental-protocol: Intrinsic clearance in rat liver microsomes assessed per mg protein at 10 uM in presence of NADPH by LC-MS/MS analysis
Type: ADME, Microsome
details: read-out: CLH
measurement-label: microsomal CLint at 10 µM (µL/min/mg)
Response body: numeric value in µL/min/mg, unit text excluded.

Give the reported microsomal CLint at 10 µM for this compound. CCCCCCCC(c1cn([C@@H]2O[C@H](CO)[C@@H](O)[C@H](O)[C@H]2O)c2ccc(Br)cc12)c1cn([C@@H]2O[C@H](CO)[C@@H](O)[C@H](O)[C@H]2O)c2ccc(Br)cc12 20

---

experimental-protocol: Ratio of drug level in blood to plasma (unknown origin) at 500 nM by LC-MS/MS analysis
Assay type: ADME, cell-free
details: blood and plasma
Each entry below carries its reported blood plasma ratio at 0.5 µM.

Give the reported blood plasma ratio at 0.5 µM for this molecule. CC(C)NCC(O)COc1ccc(CC(N)=O)cc1 (configuration not stated) [ATENOLOL] ≤ 1.2

Give the reported blood plasma ratio at 0.5 µM for this molecule. CCCCCCCC(c1cn([C@@H]2O[C@H](CO)[C@@H](O)[C@H](O)[C@H]2O)c2ccc(Br)cc12)c1cn([C@@H]2O[C@H](CO)[C@@H](O)[C@H](O)[C@H]2O)c2ccc(Br)cc12 ≤ 1.4

---

experimental-protocol: Half life in rat liver microsomes at 10 uM in presence of NADPH by LC-MS/MS analysis
Type: ADME, Microsome
measurement-label: half-life at 10 µM (h)
Response body: numeric value in h, unit text excluded.

Give the reported half-life at 10 µM for this compound. CCCCCCCC(c1cn([C@@H]2O[C@H](CO)[C@@H](O)[C@H](O)[C@H]2O)c2ccc(Br)cc12)c1cn([C@@H]2O[C@H](CO)[C@@H](O)[C@H](O)[C@H]2O)c2ccc(Br)cc12 1.16

---

experimental-protocol: Hepatic clearance in human liver microsomes at 10 uM in presence of NADPH by LC-MS/MS analysis
Assay type: ADME, Microsome
measurement-label: CLH
Record the result as a number with its unit.

Give the reported CLH for this compound. CCCCCCCC(c1cn([C@@H]2O[C@H](CO)[C@@H](O)[C@H](O)[C@H]2O)c2ccc(Br)cc12)c1cn([C@@H]2O[C@H](CO)[C@@H](O)[C@H](O)[C@H]2O)c2ccc(Br)cc12 10.6 mL/min/kg
